Collected EC50 values appear next to each entry.
Biological target: sGC α1/β1 heterodimer stably expressed in CHO-K1 cells (CHO-K1/sGC) (Homo sapiens, UniProt Q02108+Q02153)
Construct: expressed in transfected cells
Sequence (Q02108 1-690): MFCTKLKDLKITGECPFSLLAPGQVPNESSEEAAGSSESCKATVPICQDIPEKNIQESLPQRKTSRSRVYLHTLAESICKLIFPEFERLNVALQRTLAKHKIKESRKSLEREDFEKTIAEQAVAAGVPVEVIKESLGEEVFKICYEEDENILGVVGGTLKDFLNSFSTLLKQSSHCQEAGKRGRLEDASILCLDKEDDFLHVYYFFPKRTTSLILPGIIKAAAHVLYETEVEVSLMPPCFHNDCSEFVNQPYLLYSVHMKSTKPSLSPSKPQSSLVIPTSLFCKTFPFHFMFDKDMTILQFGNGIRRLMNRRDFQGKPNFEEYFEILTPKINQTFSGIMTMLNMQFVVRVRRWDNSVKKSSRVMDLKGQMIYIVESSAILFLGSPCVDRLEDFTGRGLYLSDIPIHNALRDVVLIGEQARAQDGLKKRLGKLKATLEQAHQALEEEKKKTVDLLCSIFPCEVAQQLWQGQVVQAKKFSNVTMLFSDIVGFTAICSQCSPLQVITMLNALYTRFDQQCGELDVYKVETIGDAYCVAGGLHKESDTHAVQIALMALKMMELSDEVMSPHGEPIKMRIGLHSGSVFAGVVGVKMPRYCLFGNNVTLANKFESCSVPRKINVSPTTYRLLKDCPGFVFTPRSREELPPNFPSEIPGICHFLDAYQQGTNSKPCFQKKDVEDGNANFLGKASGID
Sequence (Q02153 1-619): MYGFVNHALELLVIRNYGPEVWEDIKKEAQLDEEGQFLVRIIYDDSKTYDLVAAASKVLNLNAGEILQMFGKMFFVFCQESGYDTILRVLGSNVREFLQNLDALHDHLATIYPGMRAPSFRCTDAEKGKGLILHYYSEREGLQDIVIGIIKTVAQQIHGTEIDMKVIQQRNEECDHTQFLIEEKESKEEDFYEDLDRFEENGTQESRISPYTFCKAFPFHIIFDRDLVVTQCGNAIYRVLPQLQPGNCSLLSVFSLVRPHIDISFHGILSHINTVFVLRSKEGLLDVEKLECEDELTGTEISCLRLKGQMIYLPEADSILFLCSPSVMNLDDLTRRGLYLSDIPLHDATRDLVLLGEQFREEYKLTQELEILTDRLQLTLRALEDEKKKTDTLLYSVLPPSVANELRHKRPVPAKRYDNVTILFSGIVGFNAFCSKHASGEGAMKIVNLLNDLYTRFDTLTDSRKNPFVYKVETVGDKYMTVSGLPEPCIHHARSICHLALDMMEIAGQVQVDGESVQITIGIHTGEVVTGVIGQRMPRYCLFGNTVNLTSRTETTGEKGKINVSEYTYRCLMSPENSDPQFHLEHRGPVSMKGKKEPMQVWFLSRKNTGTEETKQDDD
Test: Cell-based sGC functional assay (CASA assay), cGMP generation by HTRF
Settings: CHO-K1/sGC cells, 1 hr at 37° C., 4P fit; presence or absence of DETA-NO not given; read-out: IP (nM) (inflection point)
Your answer should be a plain number; it is taken to be in nM.

Examples with their reported EC50 follow.
CC1(c2ccc(Cl)cc2)C(=O)Nc2nc(-c3cn4ccnc4c(NCC4CC(F)(F)C4)n3)nc(N)c21 (stereo not shown) [Example 58A]; 163
CC1(c2ccc(F)cc2)C(=O)Nc2nc(-c3cn4ccnc4c(Oc4cc(F)cc(F)c4)n3)nc(N)c21 (stereo not shown) [Example 23A]; 16
COCCNc1nc(-c2nc(N)c3c(n2)NC(=O)C3(C)c2ccc(F)cc2)cn2ccnc12 (stereo not shown) [Example 52A]; 244
CC1(c2ccc(F)cc2)C(=O)Nc2nc(-c3cn4ccnc4c(Oc4cccnc4)n3)nc(N)c21 (stereo not shown) [Example 29A]; 422

// query Query (compound): CC1(c2ccc(F)cc2)C(=O)Nc2nc(-c3cn4ccnc4c(OCCC4CC4(F)F)n3)nc(N)c21 (stereo not shown) [Example 41A] ; field requested: EC50
// result 644

// query Query (compound): CC1(c2ccc(F)cc2)C(=O)Nc2nc(-c3cn4ccnc4c(Oc4cccc(F)c4F)n3)nc(N)c21 (stereo not shown) [Example 15A] ; field requested: EC50
// result 23

// query Query (compound): CC1(c2ccc(F)cc2)C(=O)Nc2nc(-c3cn4ccnc4c(Oc4cccc(F)c4)n3)nc(N)c21 (stereo not shown) ; field requested: EC50
// result 17
